Origin of measurements: PubChem BioAssay AID1645865

target: Ubiquitin carboxyl-terminal hydrolase 30 (Homo sapiens) (UniProt Q70CQ3); experiment: inhibitors of ubiquitin-specific protease 30 deubiquitylating enzyme, concentration dependence, in vitro biochemical, validation of primary hits (AID 1645865); conditions: purified USP30, Ub-rhodamine cleavage, fluorescence, 2 h
Sequence (Q70CQ3 whole entry, looked up): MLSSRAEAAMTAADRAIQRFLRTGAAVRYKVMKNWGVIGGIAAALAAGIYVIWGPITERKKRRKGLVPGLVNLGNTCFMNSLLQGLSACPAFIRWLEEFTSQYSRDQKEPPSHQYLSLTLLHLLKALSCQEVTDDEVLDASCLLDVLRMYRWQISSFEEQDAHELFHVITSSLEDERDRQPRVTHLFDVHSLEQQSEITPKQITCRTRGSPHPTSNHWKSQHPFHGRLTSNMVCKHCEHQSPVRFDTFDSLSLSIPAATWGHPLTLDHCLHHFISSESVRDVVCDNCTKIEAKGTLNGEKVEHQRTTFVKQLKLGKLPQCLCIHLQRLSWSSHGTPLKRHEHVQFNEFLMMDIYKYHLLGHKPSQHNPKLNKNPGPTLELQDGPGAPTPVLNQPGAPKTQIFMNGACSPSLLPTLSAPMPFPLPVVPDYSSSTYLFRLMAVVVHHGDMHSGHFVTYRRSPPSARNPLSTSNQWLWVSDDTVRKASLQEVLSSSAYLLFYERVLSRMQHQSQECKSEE
Activity calls are given as the source filed them.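 Rule for the calls: active = maximal inhibition of the USP30 enzyme reaching 30% or more across the dose series; inactive = the rest.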
Labels: true = active, false = inactive

[[record]]
molecule = "Cc1ccn(-c2ccc(NC(=O)c3ccccc3Sc3ccccc3C#N)cc2)n1"
cat = "true"

[[record]]
molecule = "COc1ccccc1NC(=O)CSC1=NC2(CCCCC2)Nc2ccccc21"
cat = "false"

[[record]]
molecule = "O=S(=O)(c1ccc2c(c1)OCCO2)N(Cc1ccccc1)Cc1nnc(-c2ccccc2)o1"
cat = "false"

[[record]]
molecule = "Cc1ccccc1NC(=O)c1ccc(N2CCCCC2)nn1"
cat = "false"

[[record]]
molecule = "CC1=C(C)C(c2c(-c3ccc(C)cc3)[nH]c3ccccc23)N(C(C)(C)C)C1=O (stereo not given)"
cat = "true"


---

biological target: Ubiquitin carboxyl-terminal hydrolase 30 (Homo sapiens) (UniProt Q70CQ3); test: inhibitors of ubiquitin-specific protease 30 deubiquitylating enzyme, concentration dependence, in vitro biochemical, validation of primary hits (AID 1645865); details: purified USP30, Ub-rhodamine cleavage, fluorescence, 2 h
Active and inactive are the calls of the source.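 The calls were made as follows: active = maximal inhibition of the USP30 enzyme reaching 30% or more across the dose series; inactive = the rest.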
Outcome codes: active, inactive

[[record]]
compound = "COCCCn1c(SCC(=O)Nc2ccccc2C(=O)OC)nc2ccccc2c1=O"
cat = "active"

[[record]]
compound = "COCCCN1CCS(=O)(=O)c2c(Cl)c(F)nc(Oc3ccccc3F)c21"
cat = "inactive"

[[record]]
compound = "COc1ccc(S(=O)(=O)N2CCc3ccccc32)cc1C(=O)Nc1ccc2[nH]c(=O)[nH]c2c1"
cat = "active"

[[record]]
compound = "COc1ccccc1-c1ccc(SCC(=O)Nc2ccc3c(c2)OCCO3)nn1"
cat = "inactive"

[[record]]
compound = "Cc1cc(C(=O)COC(=O)c2ccc[nH]c2=O)c(C)n1-c1ccc2c(c1)OCO2"
cat = "inactive"

[[record]]
compound = "COc1ccc(C(=O)CSc2nnc(-c3cccnc3)n2-c2ccccc2)cc1"
cat = "inactive"

[[record]]
compound = "COC(=O)c1ccc2c(=O)n(CCCCCC(=O)NCc3cccc(Cl)c3)c(=O)[nH]c2c1"
cat = "active"

[[record]]
compound = "CSc1cccc(C(=O)Nc2ccc(-c3nc4ccccc4[nH]3)cc2)c1"
cat = "active"

[[record]]
compound = "COc1ccc(C2C(C(=O)Nc3ccccc3OC)=C(C)Nc3nnnn32)cc1Br (stereo unspecified)"
cat = "active"

[[record]]
compound = "COc1cc(/C=C/C(=O)OCC(=O)Nc2ccc([N+](=O)[O-])cc2OC)ccc1O"
cat = "active"

[[record]]
compound = "CS(=O)(=O)n1nc(NCc2ccc(F)cc2)nc1NCc1ccc(F)cc1"
cat = "inactive"

[[record]]
compound = "Cc1noc(C)c1COc1cccc(C(=O)Nc2cc(Cl)ccc2-n2cncn2)c1"
cat = "inactive"

[[record]]
compound = "CC(=O)Nc1ccc(-n2cnc(C(=O)NC(C)c3ccccc3)c2)nc1 (stereo unspecified)"
cat = "active"

[[record]]
compound = "Cc1ccc(C(=O)Nc2ccc(S(=O)(=O)N3CCCC3)cc2)cc1Br"
cat = "inactive"

[[record]]
compound = "O=C(NCCCN1CCc2ccccc2C1)c1cc2c(s1)CS(=O)(=O)C2"
cat = "inactive"

[[record]]
compound = "CCCc1nc2sc3c(NC4CCCCC4)ncnc3c2c2c1CCC2"
cat = "inactive"

[[record]]
compound = "COc1cc(O)c2c(c1)C1=CC(=O)C(O)=C[C@]1(C)OC2=O"
cat = "active"

[[record]]
compound = "O=c1c2cnc(N3CCCCC3)nc2ccn1CCc1ccccc1"
cat = "active"

[[record]]
compound = "c1ccc2c(c1)CCc1c-2nc2ccccc2c1N1CCOCC1"
cat = "inactive"

[[record]]
compound = "COc1cccc(-n2cnc3cc(C(=O)NC4CC4)ccc3c2=O)c1"
cat = "inactive"

[[record]]
compound = "Cc1ccc(Cn2cc(-c3noc(-c4ccncc4)n3)nn2)cc1"
cat = "active"

[[record]]
compound = "COC(=O)C1C(c2ccc(OC)cc2)C2(C(=O)c3ccccc3C2=O)C2C=Cc3ccccc3N12 (stereo unspecified)"
cat = "inactive"

[[record]]
compound = "COc1ccc(-n2ccn3c(CCC(=O)NCc4ccc(F)cc4)nnc3c2=O)cc1"
cat = "active"

[[record]]
compound = "O=C1Oc2nc3ccccc3cc2CN1Cc1ccco1"
cat = "active"

[[record]]
compound = "CC(C(=O)NCc1ccc(F)cc1)n1cccc1C(=O)c1ccccc1 (stereo unspecified)"
cat = "inactive"

[[record]]
compound = "COc1ccc(NC(=O)c2nnn(-c3cccc(C)c3)c2C)cc1"
cat = "inactive"

[[record]]
compound = "CCCCCCCc1cc(O)cc(OC(=O)c2c(CCCCCCC)cc(O)cc2O[C@H]2O[C@H](C(O)CO)[C@@H](O)[C@@H]2O)c1 (stereo partly specified)"
cat = "active"

[[record]]
compound = "CC1(C)OC2=C(C(=O)c3cc(O)cc(O)c3C2=O)c2cc(CO)c(O)cc21"
cat = "inactive"

[[record]]
compound = "CC1CCN(c2nc(F)c3c(c2F)S(=O)(=O)CCN3Cc2cccnc2)CC1"
cat = "inactive"

[[record]]
compound = "CO/C=C/C(=O)c1cc2cnc3c(=N)cc(NC(C)=O)c([nH]1)c23"
cat = "inactive"

[[record]]
compound = "Cc1ccc2c(c1)N(Cc1nc(-c3ccc(F)cc3)no1)C(=O)CO2"
cat = "inactive"

[[record]]
compound = "COc1ccc2nc(Nc3ncc4c(n3)CCCC4=O)nc(C)c2c1"
cat = "inactive"

[[record]]
compound = "Cc1ccc2c(c1C)NC(=O)[C@]21[C@@H]2C(=O)N(c3cccc(Cl)c3)C(=O)[C@@H]2[C@@H]2CCCN21"
cat = "inactive"

[[record]]
compound = "Cn1c(-c2nnc(SCC(=O)NCCc3ccccc3)o2)cc2ccccc21"
cat = "active"

[[record]]
compound = "N#Cc1ccc(NC(=O)Nc2cccn(Cc3ccccc3F)c2=O)cc1"
cat = "active"

[[record]]
compound = "Cc1ccc(-c2nc(Cn3nnc(-c4nc(-c5ccccn5)no4)c3C)c(C)o2)cc1"
cat = "inactive"

[[record]]
compound = "COc1cccc(NC(=O)C2C3C=CC4(O3)C2C(=O)N(CCc2ccccc2Cl)C4C(=O)NC2CCCCC2)c1 (stereo unspecified)"
cat = "active"

[[record]]
compound = "CC(C)=CCC/C(C)=C/C[C@]1(O)C(=O)c2cc(O)cc(O)c2C(=O)[C@@]1(Cl)CC=C(C)C"
cat = "inactive"

[[record]]
compound = "Nc1c(C(=O)Nc2ccc3c(c2)OCO3)sc2nc(-c3cccnc3)ccc12"
cat = "active"

[[record]]
compound = "CC1(C)CC2CC(C)(CN2Cc2c(O)ccc3ccccc23)C1 (stereo unspecified)"
cat = "inactive"

[[record]]
compound = "O=C(CSc1nc2ccncc2[nH]1)Nc1ccc(Br)cc1F"
cat = "active"


---

Item-by-item account of IC50
biological target: Ubiquitin carboxyl-terminal hydrolase 30 (Homo sapiens); experiment: inhibitors of ubiquitin-specific protease 30 deubiquitylating enzyme, concentration dependence, in vitro biochemical, validation of primary hits (AID 1645865); details: purified USP30, Ub-rhodamine cleavage, fluorescence, 2 h
Active and inactive are the calls of the source.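 How the source made its calls: active means maximal inhibition of the USP30 enzyme reaching 30% or more across the dose series; inactive means the rest.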
QUANTITY_MEASURED: IC50

[[record]]
compound = "O=C(NCc1ccccc1)c1ccc(-c2ccc(N3CCCC3)nn2)cc1"
obs_value = "> 50 µM (inactive)"

[[record]]
compound = "O=C(/C=C/c1ccc(F)cc1)N1CCc2ccccc2C1"
obs_value = "> 50 µM (inactive)"

[[record]]
compound = "CN(C)c1ccc(/C=N/NC(=O)c2ccc(Cl)cc2)cc1"
obs_value = "10.7 µM"

[[record]]
compound = "FC(F)(F)c1ccccc1CCN1CCc2nc3ncc(Cl)cc3cc2C1"
obs_value = "> 50 µM (inactive)"

[[record]]
compound = "O=C(Nc1ccc(N2CCOCC2)cc1)c1ccc(-c2ccc(N3CCCC3)nn2)cc1"
obs_value = "> 50 µM (inactive)"

[[record]]
compound = "CCOc1ccccc1C(=O)Nc1ccc2c(c1)Sc1ncccc1C(=O)N2C"
obs_value = "> 50 µM (inactive)"

[[record]]
compound = "CCCCNC(=O)C1Sc2nnc(-c3ccccc3)n2NC1c1ccccc1 (stereo unspecified)"
obs_value = "21.8 µM"

[[record]]
compound = "Cc1ccc(CNC(=O)CCCn2c(=O)c3sccc3n(CC(=O)OCc3ccccc3)c2=O)cc1"
obs_value = "2 µM"

[[record]]
compound = "COCCN(C1CCN(CCc2ccc(Cl)cc2)CC1)S(=O)(=O)c1cccc2cccnc12"
obs_value = "> 50 µM (inactive)"

[[record]]
compound = "O=C(Nc1ncc2c(n1)-c1ccccc1CC2)C1CC1"
obs_value = "17.5 µM"

[[record]]
compound = "O=C(NCCn1ccc2ccccc21)c1cc2ccccc2oc1=O"
obs_value = "40.9 µM"

